metric-name: pIC50
Answer as the number alone; pIC50 is minus log10 of concentration in mol/L.

Request: Hi! What's the reported pIC50 for NC(=O)c1cccc2[nH]c(SCC(=O)c3ccc(N4CCCCC4)cc3)nc12 on PARP-1 (Homo sapiens, UniProt P09874)?
Result: 5.85

Request: Hi! What's the reported pIC50 for Cc1ccccc1C(=O)CSc1nc2c(C(N)=O)cccc2[nH]1 on PARP-1 (Homo sapiens, UniProt P09874)?
Result: 6.02

Request: Hi! What's the reported pIC50 for NC(=O)c1cccc2[nH]c(SCC(=O)c3ccccc3F)nc12 on PARP-1 (Homo sapiens, UniProt P09874)?
Result: 5.91

Request: Hi! What's the reported pIC50 for COc1cccc(C(=O)CSc2nc3c(C(N)=O)cccc3[nH]2)c1 on PARP-1 (Homo sapiens, UniProt P09874)?
Result: 5.65

Request: Hi! What's the reported pIC50 for NC(=O)c1cccc(C(=O)CSc2nc3c(C(N)=O)cccc3[nH]2)c1 on PARP-1 (Homo sapiens, UniProt P09874)?
Result: 6.37

Request: Hi! What's the reported pIC50 for NC(=O)c1cccc2[nH]c(SCC(=O)c3cccc(F)c3)nc12 on PARP-1 (Homo sapiens, UniProt P09874)?
Result: 6.02

Request: Hi! What's the reported pIC50 for Cc1ccc(C)c(C(=O)CSc2nc3c(C(N)=O)cccc3[nH]2)c1 on PARP-1 (Homo sapiens, UniProt P09874)?
Result: 5.88

Request: Hi! What's the reported pIC50 for NC(=O)c1cccc2[nH]c(SCC(=O)c3cccc(N4CCCC4)c3)nc12 on PARP-1 (Homo sapiens, UniProt P09874)?
Result: 5.92

* * *

Molecular target: UniProt P09874
I'd be grateful if you could share measured pIC50 for these entries.
Answer as the number alone; pIC50 is minus log10 of concentration in mol/L.

Request: May I ask what pIC50 has been recorded for NC(=O)c1cccc2[nH]c(SCC(=O)c3cccc(Br)c3)nc12 ?
Result: 5.65

Request: May I ask what pIC50 has been recorded for NC(=O)c1ccc(C(=O)CSc2nc3c(C(N)=O)cccc3[nH]2)cc1 ?
Result: 6.42

Request: May I ask what pIC50 has been recorded for NC(=O)c1cccc2[nH]c(SCC(=O)c3ccc(Cl)cc3Cl)nc12 ?
Result: 5.32

Request: May I ask what pIC50 has been recorded for NC(=O)c1cccc2[nH]c(SCC(=O)c3cc(Cl)ccc3Cl)nc12 ?
Result: 5.98

Request: May I ask what pIC50 has been recorded for Cc1cccc(C(=O)CSc2nc3c(C(N)=O)cccc3[nH]2)c1 ?
Result: 5.72

Request: May I ask what pIC50 has been recorded for NC(=O)c1cccc2[nH]c(SCC(=O)c3ccc(F)cc3)nc12 ?
Result: 6.03

Request: May I ask what pIC50 has been recorded for NC(=O)c1cccc2[nH]c(SCC(=O)c3ccc(C=O)cc3)nc12 ?
Result: 6.12

Request: May I ask what pIC50 has been recorded for NC(=O)c1cccc2[nH]c(SCC(=O)c3ccc(Br)cc3)nc12 ?
Result: 6.15

* * *

Quick note: these are pIC50 numbers for system: PARP-1 (Homo sapiens, UniProt P09874)
Sequence (P09874 whole entry): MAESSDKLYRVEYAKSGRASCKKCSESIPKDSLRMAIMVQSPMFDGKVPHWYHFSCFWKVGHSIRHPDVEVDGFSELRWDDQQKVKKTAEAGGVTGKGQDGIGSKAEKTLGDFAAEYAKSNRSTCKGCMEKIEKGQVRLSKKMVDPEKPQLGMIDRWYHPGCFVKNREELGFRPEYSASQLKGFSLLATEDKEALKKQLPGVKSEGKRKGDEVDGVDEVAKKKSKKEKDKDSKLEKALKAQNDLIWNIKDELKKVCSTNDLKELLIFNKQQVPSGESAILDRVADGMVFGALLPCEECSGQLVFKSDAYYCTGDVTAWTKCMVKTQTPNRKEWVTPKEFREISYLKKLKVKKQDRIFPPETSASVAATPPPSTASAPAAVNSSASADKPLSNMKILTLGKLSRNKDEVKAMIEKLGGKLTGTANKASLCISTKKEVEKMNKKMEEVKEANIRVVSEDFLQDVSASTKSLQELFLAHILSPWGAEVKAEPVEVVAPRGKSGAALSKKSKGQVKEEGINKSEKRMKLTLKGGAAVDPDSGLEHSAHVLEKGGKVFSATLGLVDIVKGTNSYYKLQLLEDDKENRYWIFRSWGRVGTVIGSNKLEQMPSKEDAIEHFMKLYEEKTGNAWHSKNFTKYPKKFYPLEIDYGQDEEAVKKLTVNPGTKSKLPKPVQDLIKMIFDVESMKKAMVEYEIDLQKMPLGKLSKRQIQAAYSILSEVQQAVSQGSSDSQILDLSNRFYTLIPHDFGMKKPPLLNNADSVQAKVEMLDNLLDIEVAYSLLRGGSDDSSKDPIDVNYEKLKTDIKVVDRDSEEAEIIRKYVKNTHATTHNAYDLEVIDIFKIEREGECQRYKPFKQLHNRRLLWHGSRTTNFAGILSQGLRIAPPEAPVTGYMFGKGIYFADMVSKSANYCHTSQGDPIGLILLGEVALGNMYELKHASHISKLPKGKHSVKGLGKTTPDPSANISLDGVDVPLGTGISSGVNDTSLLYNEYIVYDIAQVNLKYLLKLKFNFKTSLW
Answer as the number alone; pIC50 is minus log10 of concentration in mol/L.

Request: May I ask what pIC50 has been recorded for COc1ccc(C(=O)CSc2nc3c(C(N)=O)cccc3[nH]2)cc1 ?
Result: 5.71

Request: May I ask what pIC50 has been recorded for COc1ccccc1C(=O)CSc1nc2c(C(N)=O)cccc2[nH]1 ?
Result: 5.95
